target: CDC34; test: reporter assay of Huesken 2005; settings: siRNA; also: test concentration or dose not given here
Oligonucleotides are given in HELM: sugar(base)linkage, 5' to 3'; d 2'-deoxyribose, r ribose, m 2'-O-methylribose, p phosphate. ss, as = sense and antisense strand
assay.endpoint: normalised inhibition (eCFP-eYFP dual reporter) (%)
Field: numeric (%). Do not append units.

Ask: Report normalised inhibition (eCFP-eYFP dual reporter) for `RNA1{r(C)p.r(C)p.r(C)p.r(C)p.r(A)p.r(U)p.r(C)p.r(G)p.r(A)p.r(C)p.r(U)p.r(A)p.r(C)p.r(C)p.r(C)p.r(A)p.r(U)p.r(A)p.r(C)p.d(T)p.d(T)}|RNA2{r(G)p.r(U)p.r(A)p.r(U)p.r(G)p.r(G)p.r(G)p.r(U)p.r(A)p.r(G)p.r(U)p.r(C)p.r(G)p.r(A)p.r(U)p.r(G)p.r(G)p.r(G)p.r(G)p.d(A)p.d(A)}$$$RNA1{StrandType:ss}|RNA2{StrandType:as}$` please.
Reply: 44.9

Ask: For the substance `RNA1{r(U)p.r(G)p.r(A)p.r(U)p.r(C)p.r(U)p.r(C)p.r(C)p.r(C)p.r(U)p.r(C)p.r(C)p.r(U)p.r(G)p.r(A)p.r(A)p.r(C)p.r(G)p.r(A)p.d(T)p.d(T)}|RNA2{r(U)p.r(C)p.r(G)p.r(U)p.r(U)p.r(C)p.r(A)p.r(G)p.r(G)p.r(A)p.r(G)p.r(G)p.r(G)p.r(A)p.r(G)p.r(A)p.r(U)p.r(C)p.r(A)p.d(C)p.d(A)}$$$RNA1{StrandType:ss}|RNA2{StrandType:as}$` , what normalised inhibition (eCFP-eYFP dual reporter) is on record?
Reply: 70

Ask: What value of measured normalised inhibition (eCFP-eYFP dual reporter) is listed for `RNA1{r(C)p.r(A)p.r(C)p.r(C)p.r(C)p.r(G)p.r(C)p.r(C)p.r(G)p.r(G)p.r(U)p.r(G)p.r(G)p.r(A)p.r(C)p.r(G)p.r(A)p.r(C)p.r(C)p.d(T)p.d(T)}|RNA2{r(G)p.r(G)p.r(U)p.r(C)p.r(G)p.r(U)p.r(C)p.r(C)p.r(A)p.r(C)p.r(C)p.r(G)p.r(G)p.r(C)p.r(G)p.r(G)p.r(G)p.r(U)p.r(G)p.d(G)p.d(A)}$$$RNA1{StrandType:ss}|RNA2{StrandType:as}$` ?
Reply: 25.4

Ask: # lookup: normalised inhibition (eCFP-eYFP dual reporter) of `RNA1{r(U)p.r(G)p.r(G)p.r(C)p.r(C)p.r(G)p.r(A)p.r(G)p.r(U)p.r(A)p.r(C)p.r(U)p.r(G)p.r(C)p.r(G)p.r(U)p.r(G)p.r(A)p.r(A)p.d(T)p.d(T)}|RNA2{r(U)p.r(U)p.r(C)p.r(A)p.r(C)p.r(G)p.r(C)p.r(A)p.r(G)p.r(U)p.r(A)p.r(C)p.r(U)p.r(C)p.r(G)p.r(G)p.r(C)p.r(C)p.r(A)p.d(G)p.d(C)}$$$RNA1{StrandType:ss}|RNA2{StrandType:as}$`
Reply: 65.2

Ask: Give its normalised inhibition (eCFP-eYFP dual reporter) value. Item: `RNA1{r(C)p.r(G)p.r(C)p.r(G)p.r(U)p.r(G)p.r(A)p.r(C)p.r(A)p.r(C)p.r(U)p.r(G)p.r(G)p.r(U)p.r(G)p.r(G)p.r(A)p.r(C)p.r(G)p.d(T)p.d(T)}|RNA2{r(C)p.r(G)p.r(U)p.r(C)p.r(C)p.r(A)p.r(C)p.r(C)p.r(A)p.r(G)p.r(U)p.r(G)p.r(U)p.r(C)p.r(A)p.r(C)p.r(G)p.r(C)p.r(G)p.d(G)p.d(A)}$$$RNA1{StrandType:ss}|RNA2{StrandType:as}$`
Reply: 67.3

Ask: Requested field: normalised inhibition (eCFP-eYFP dual reporter). Item: `RNA1{r(G)p.r(C)p.r(U)p.r(G)p.r(C)p.r(C)p.r(C)p.r(U)p.r(C)p.r(A)p.r(G)p.r(A)p.r(G)p.r(A)p.r(G)p.r(G)p.r(U)p.r(G)p.r(G)p.d(T)p.d(T)}|RNA2{r(C)p.r(C)p.r(A)p.r(C)p.r(C)p.r(U)p.r(C)p.r(U)p.r(C)p.r(U)p.r(G)p.r(A)p.r(G)p.r(G)p.r(G)p.r(C)p.r(A)p.r(G)p.r(C)p.d(T)p.d(C)}$$$RNA1{StrandType:ss}|RNA2{StrandType:as}$`
Reply: 39.3

Ask: Could you tell me which normalised inhibition (eCFP-eYFP dual reporter) is on file for `RNA1{r(U)p.r(G)p.r(G)p.r(C)p.r(A)p.r(C)p.r(C)p.r(C)p.r(U)p.r(A)p.r(A)p.r(C)p.r(A)p.r(U)p.r(C)p.r(U)p.r(A)p.r(C)p.r(G)p.d(T)p.d(T)}|RNA2{r(C)p.r(G)p.r(U)p.r(A)p.r(G)p.r(A)p.r(U)p.r(G)p.r(U)p.r(U)p.r(A)p.r(G)p.r(G)p.r(G)p.r(U)p.r(G)p.r(C)p.r(C)p.r(A)p.d(C)p.d(A)}$$$RNA1{StrandType:ss}|RNA2{StrandType:as}$` ?
Reply: 25.1

Ask: Please look up its normalised inhibition (eCFP-eYFP dual reporter): `RNA1{r(A)p.r(C)p.r(G)p.r(U)p.r(C)p.r(A)p.r(G)p.r(G)p.r(A)p.r(C)p.r(C)p.r(A)p.r(U)p.r(U)p.r(C)p.r(U)p.r(C)p.r(C)p.r(U)p.d(T)p.d(T)}|RNA2{r(A)p.r(G)p.r(G)p.r(A)p.r(G)p.r(A)p.r(A)p.r(U)p.r(G)p.r(G)p.r(U)p.r(C)p.r(C)p.r(U)p.r(G)p.r(A)p.r(C)p.r(G)p.r(U)p.d(T)p.d(C)}$$$RNA1{StrandType:ss}|RNA2{StrandType:as}$`
Reply: 72.2

Ask: normalised inhibition (eCFP-eYFP dual reporter) lookup needed for `RNA1{r(G)p.r(C)p.r(C)p.r(C)p.r(G)p.r(A)p.r(C)p.r(G)p.r(A)p.r(G)p.r(G)p.r(G)p.r(C)p.r(U)p.r(C)p.r(A)p.r(G)p.r(A)p.r(C)p.d(T)p.d(T)}|RNA2{r(G)p.r(U)p.r(C)p.r(U)p.r(G)p.r(A)p.r(G)p.r(C)p.r(C)p.r(C)p.r(U)p.r(C)p.r(G)p.r(U)p.r(C)p.r(G)p.r(G)p.r(G)p.r(C)p.d(G)p.d(C)}$$$RNA1{StrandType:ss}|RNA2{StrandType:as}$` , thanks.
Reply: 33.6

Ask: Look at this substance and give its reported normalised inhibition (eCFP-eYFP dual reporter). `RNA1{r(C)p.r(G)p.r(C)p.r(C)p.r(U)p.r(C)p.r(C)p.r(G)p.r(U)p.r(G)p.r(A)p.r(U)p.r(G)p.r(U)p.r(A)p.r(C)p.r(A)p.r(G)p.r(G)p.d(T)p.d(T)}|RNA2{r(C)p.r(C)p.r(U)p.r(G)p.r(U)p.r(A)p.r(C)p.r(A)p.r(U)p.r(C)p.r(A)p.r(C)p.r(G)p.r(G)p.r(A)p.r(G)p.r(G)p.r(C)p.r(G)p.d(T)p.d(C)}$$$RNA1{StrandType:ss}|RNA2{StrandType:as}$`
Reply: 36.4

====

target: CDC34; experiment: reporter assay of Huesken 2005; conditions: siRNA; also: test concentration or dose not given here
Oligonucleotides are given in HELM: sugar(base)linkage, 5' to 3'; d 2'-deoxyribose, r ribose, m 2'-O-methylribose, p phosphate. ss, as = sense and antisense strand
I'd appreciate it if you could supply normalised inhibition (eCFP-eYFP dual reporter) values for the items below.
Output spec: scalar in %, unitless text.

Ask: # query: normalised inhibition (eCFP-eYFP dual reporter) of entry `RNA1{r(C)p.r(U)p.r(G)p.r(A)p.r(G)p.r(U)p.r(G)p.r(U)p.r(G)p.r(A)p.r(U)p.r(C)p.r(U)p.r(C)p.r(C)p.r(C)p.r(U)p.r(C)p.r(C)p.d(T)p.d(T)}|RNA2{r(G)p.r(G)p.r(A)p.r(G)p.r(G)p.r(G)p.r(A)p.r(G)p.r(A)p.r(U)p.r(C)p.r(A)p.r(C)p.r(A)p.r(C)p.r(U)p.r(C)p.r(A)p.r(G)p.d(G)p.d(A)}$$$RNA1{StrandType:ss}|RNA2{StrandType:as}$`
Reply: 23.2

Ask: # normalised inhibition (eCFP-eYFP dual reporter) lookup, item `RNA1{r(G)p.r(G)p.r(U)p.r(G)p.r(G)p.r(A)p.r(C)p.r(G)p.r(C)p.r(G)p.r(G)p.r(A)p.r(G)p.r(C)p.r(G)p.r(U)p.r(G)p.r(A)p.r(C)p.d(T)p.d(T)}|RNA2{r(G)p.r(U)p.r(C)p.r(A)p.r(C)p.r(G)p.r(C)p.r(U)p.r(C)p.r(C)p.r(G)p.r(C)p.r(G)p.r(U)p.r(C)p.r(C)p.r(A)p.r(C)p.r(C)p.d(T)p.d(T)}$$$RNA1{StrandType:ss}|RNA2{StrandType:as}$`
Reply: 53.4

Ask: Param item = `RNA1{r(G)p.r(A)p.r(U)p.r(C)p.r(U)p.r(A)p.r(U)p.r(A)p.r(C)p.r(A)p.r(A)p.r(C)p.r(U)p.r(G)p.r(G)p.r(G)p.r(A)p.r(G)p.r(G)p.d(T)p.d(T)}|RNA2{r(C)p.r(C)p.r(U)p.r(C)p.r(C)p.r(C)p.r(A)p.r(G)p.r(U)p.r(U)p.r(G)p.r(U)p.r(A)p.r(U)p.r(A)p.r(G)p.r(A)p.r(U)p.r(C)p.d(G)p.d(C)}$$$RNA1{StrandType:ss}|RNA2{StrandType:as}$` ; retrieve measured normalised inhibition (eCFP-eYFP dual reporter).
Reply: 41.7

These entries and their values trace back to the OligoGym collection.
